- SYSTEM UNDER TEST: dopamine transporter (DAT) (Rattus norvegicus, UniProt P23977)
- Sequence (P23977 whole entry): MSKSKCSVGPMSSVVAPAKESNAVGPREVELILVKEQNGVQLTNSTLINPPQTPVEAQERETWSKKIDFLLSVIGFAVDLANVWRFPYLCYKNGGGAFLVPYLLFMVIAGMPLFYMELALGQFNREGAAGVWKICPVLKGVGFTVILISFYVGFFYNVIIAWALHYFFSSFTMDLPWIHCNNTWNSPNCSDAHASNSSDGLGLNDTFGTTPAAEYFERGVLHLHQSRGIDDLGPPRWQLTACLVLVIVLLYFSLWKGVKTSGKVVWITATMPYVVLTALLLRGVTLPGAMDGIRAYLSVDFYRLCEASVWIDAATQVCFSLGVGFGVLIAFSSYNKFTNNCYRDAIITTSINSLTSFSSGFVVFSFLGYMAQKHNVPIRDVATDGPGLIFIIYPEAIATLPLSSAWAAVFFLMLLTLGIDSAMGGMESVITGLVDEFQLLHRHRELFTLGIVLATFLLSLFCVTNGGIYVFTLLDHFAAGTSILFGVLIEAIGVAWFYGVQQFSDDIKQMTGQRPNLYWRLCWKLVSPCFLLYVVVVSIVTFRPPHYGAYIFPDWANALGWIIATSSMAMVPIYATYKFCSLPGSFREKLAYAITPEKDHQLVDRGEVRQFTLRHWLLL
- ASSAY SUMMARY: Dopamine reuptake ([^3H]dopamine uptake) inhibition in rat brain synaptosomes
- RUN CONDITIONS: read-out: DAT Uptake Emax
Assign t whenever Emax does not fall below 70%; assign f whenever it does.

Record excerpt, results attached:
{"columns": ["COMPOUND", "CATEGORY LABEL"],
 "data": [
  ["CN(C)c1ncc(-c2nc(NCC(O)(c3ccccc3)c3ccccc3)c3ccccc3n2)cn1", "t"],
  ["c1ccc(C(CNc2nc(-c3cnc4nccn4c3)nc3ccccc23)c2ccncc2)cc1 (stereo not shown)", "f"],
  ["COC(=O)[C@H]1[C@@H](OC(=O)c2ccccc2)C[C@@H]2CC[C@H]1N2C [cocaine, reference compound]", "t"],
  ["CN(C)c1ncc(-c2nc(NCC(c3ccccc3)c3ccccc3)c3ccccc3n2)cn1", "t"],
  ["CN(C)c1ccc(-c2nc(NCC(c3ccccc3)c3ccccc3)c3ccccc3n2)cn1", "f"],
  ["c1ccc(C(CNc2nc(-c3ccc4ncnn4c3)nc3ccccc23)c2ccccc2)cc1", "f"]
]}

hey, is Emax for this one >= 70%? c1ccc(C(CNc2nc(-c3ccc4[nH]ccc4c3)nc3ccccc23)c2ccccc2)cc1 t
